Test system: 5-HT (serotonin) uptake
ASSAY COMMENT: 5-HT (serotonin) uptake inhibition, synaptosomal preparation (cortex)
Format: biochemical, rat (Male Sprague-Dawley)
PROTOCOL CONDITIONS: 5-hydroxytryptamine; rat cortex synaptosomes; 0.1 μM tritiated amine; 37° C., 4 minutes
Structures can show the parent of a compound that is named as a salt.
MEASURED METRIC: IC50 (µM)
State just the number; it will be interpreted in µM.

For orientation, consider the following solved cases.
[
  {
    "MOLECULE": "COc1ccc2c(c1)CCC1C2CN(C)C1Cc1ccccc1 (stereo not drawn) [Example 2]",
    "IC50, µM": 4.16
  },
  {
    "MOLECULE": "COc1ccc2c(c1OC)CCC1C(Cc3ccccc3)NCC21 (stereo not drawn) [Example 31, hydrochloride]",
    "IC50, µM": 14
  }
]

// next entry
Query block: What does the record list as IC50 for COc1ccc2c(c1)CC[C@H]1[C@@H]2CN(C)[C@@H]1Cc1ccccc1 (relative stereo) ?
Result block: 2.7
